Just for reference, patent US20080085893A1 is where these values come from.

- SUBJECT_OF_TEST: human MMP-2 (amino acids 1-660) (Homo sapiens, UniProt P08253)
- Construct: human MMP-2 (amino acids 1-660); made in house
- Sequence (P08253 110-660): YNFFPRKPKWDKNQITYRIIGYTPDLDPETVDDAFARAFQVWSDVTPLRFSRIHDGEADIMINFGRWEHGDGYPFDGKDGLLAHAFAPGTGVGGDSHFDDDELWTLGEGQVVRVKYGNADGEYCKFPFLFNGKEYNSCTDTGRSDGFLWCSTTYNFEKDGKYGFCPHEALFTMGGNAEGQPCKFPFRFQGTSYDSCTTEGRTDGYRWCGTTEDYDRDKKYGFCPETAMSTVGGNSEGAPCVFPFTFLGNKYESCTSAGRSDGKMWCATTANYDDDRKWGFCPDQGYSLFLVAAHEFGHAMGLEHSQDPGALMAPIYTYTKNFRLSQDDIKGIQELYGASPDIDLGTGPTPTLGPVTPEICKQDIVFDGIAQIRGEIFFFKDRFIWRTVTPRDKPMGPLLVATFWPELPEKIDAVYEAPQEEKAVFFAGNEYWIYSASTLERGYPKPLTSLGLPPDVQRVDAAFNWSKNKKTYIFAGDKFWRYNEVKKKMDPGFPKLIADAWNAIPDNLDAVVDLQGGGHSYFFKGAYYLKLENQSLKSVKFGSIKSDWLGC
- PROTOCOL_DESCRIPTION: MMP dose response assay for determining IC50, MMP-2
- Format: biochemical
- TEST_CONDITIONS: recombinant enzyme, fluorescent-quench substrate 100 nM; read-out: MMP-2
pIC50: −log10 of the molar value.
PROPERTY_LABEL: pIC50

Example entries begin here.
| SMILES | SUBJECT_OF_TEST | ASSAY_RESULT |
| --- | --- | --- |
| CCCS(=O)(=O)N(C[C@H](O)C(=O)NO)c1ccc(Oc2ccc(C)cc2)cc1 | human MMP-2 (amino acids 1-660) (Homo sapiens, UniProt P08253) | 6.29 |
| CS(=O)(=O)N(C[C@@H](C(=O)NO)N1CCCCC1)c1ccc(Oc2ccc(C(F)(F)F)cc2)cc1 | human MMP-2 (amino acids 1-660) (Homo sapiens, UniProt P08253) | 8.12 |
| CC(=O)N1CCN([C@@H](CN(c2ccc(Oc3ccc(C(F)(F)F)cc3)cc2)S(C)(=O)=O)C(=O)NO)CC1 | human MMP-2 (amino acids 1-660) (Homo sapiens, UniProt P08253) | 8.07 |

P: COC[C@@H]1CCCN1[C@@H](CN(c1ccc(Oc2ccc(C(F)(F)F)cc2)cc1)S(C)(=O)=O)C(=O)NO
Q: Cc1ccc(Oc2ccc(N(C[C@H](N[C@H](C)c3ccccc3)C(=O)NO)S(C)(=O)=O)cc2)cc1
R: CS(=O)(=O)N(C[C@H](NCCc1c[nH]c2ccccc12)C(=O)NO)c1ccc(Oc2ccc(C(F)(F)F)cc2)cc1
S: CS(=O)(=O)N(C[C@@H](C(=O)NO)N1CCC(O)(c2ccc(Br)cc2)CC1)c1ccc(Oc2ccc(C(F)(F)F)cc2)cc1
QUERY: Arrange items by their pIC50 values in increasing order. # format: label list in the order the request specifies
RESULT: R, S, Q, P
(R: 6.50, S: 7.41, Q: 7.62, P: 7.95)
